Biological target: FALZ bromodomain (human, UniProt Q12830 2914-3037)
Test: ITC; peptide (mM stock) titrated into bromodomain (about 50 μM), by the concentrations in the tables; 10 or 15°C, 50 mM HEPES pH 7.5, 150 mM NaCl; single binding site model
Conditions: both partners purified
Where no end group is shown, it is not given here.
measured.endpoint: pKd
pKd here: minus log base 10 of the concentration, concentration in moles per litre.

// recorded pKd for SGRGK(Ac)GGKGLY (histone H4, human; source: synthetic peptide) [H4K5 peptide SGRGKacGGKGLY] : 3.76
